Organism: Rattus norvegicus
Experiment: Compound was tested for the ability to inhibit kainic acid (KA)-induced inward currents in Xenopus oocytes injected with poly {A+) mRNA from rats
Type: functional
Measure: pKi
Friendly reminder that pKi comes from taking -log10 of the concentration in mol/L.

O=P(O)(O)Cc1cc(O)nc2cc(Cl)cc(Cl)c12 :: 4.74
O=P(O)(O)Cc1cc(O)nc2cc(Cl)ccc12 :: 4.49

Challenge: State its pKi: O=P(O)(O)Cc1cc(O)nc2cc(Cl)c(Cl)cc12
Response given: 5.02

Challenge: State its pKi: O=C(O)c1cc(CP(=O)(O)O)c2ccc(Cl)cc2n1
Response given: 3.88

Challenge: State its pKi: O=P(O)(O)Cc1cc(O)nc2cc(I)ccc12
Response given: 4.81

Challenge: State its pKi: O=C(O)c1cc(CCP(=O)(O)O)c2ccc(Cl)cc2n1
Response given: 3.35

====

Test: Displacement of [3H]CNQX from Ionotropic glutamate receptor kainate/Ionotropic glutamate receptor AMPA in rat cortical membranes
Format: cell membranes, Membrane
Measure: pIC50
Friendly reminder that pIC50 comes from taking -log10 of the concentration in mol/L.

Known pIC50 results, listed for orientation:
N#Cc1cc2c(cc1[N+](=O)[O-])=NC(=O)C(=O)N=2 :: 6.89
O=C(O)c1cc(CCP(=O)(O)O)c2ccc(Cl)cc2n1 :: 3.42
O=C(O)c1cc(CP(=O)(O)O)c2ccc(Cl)cc2n1 :: 4.21
NC(Cc1cc(I)ccc1CCP(=O)(O)O)C(=O)O (stereo unspecified) :: 5.14
O=[N+]([O-])c1c(Cl)ccc2c(CP(=O)(O)O)cc(O)nc12 :: 3.52

Challenge: State its pIC50: O=P(O)(O)Cc1cc(O)nc2cc(I)ccc12
Response given: 4.46

Challenge: State its pIC50: O=P(O)(O)CCc1cc(O)nc2cc(Cl)ccc12
Response given: 4.04

Challenge: State its pIC50: O=P(O)(O)Cc1cc(O)nc2cc(Cl)c(Cl)cc12
Response given: 4.82

Challenge: State its pIC50: O=P(O)(O)Cc1cc(O)nc2cc(Cl)cc(Cl)c12
Response given: 4.59

Challenge: State its pIC50: O=P(O)(O)Cc1cc(O)nc2cc(Cl)ccc12
Response given: 4.23

====

Species on record: Rattus norvegicus
Assay: Compound was tested for its ability to inhibit kainic acid (KA)-induced inward currents in Xenopus oocytes injected with poly {A+) mRNA from rats
Assay type: functional
Measure: pKi
Friendly reminder that pKi comes from taking -log10 of the concentration in mol/L.

Challenge: State its pKi: NC(Cc1cc(I)ccc1CCP(=O)(O)O)C(=O)O (stereo unspecified)
Response given: 5.46

====

Below, each of the compounds is paired with its reported pIC50 value.
Experiment: Tested for its ability to displace [3H]glutamate from NMDA receptor
Friendly reminder that pIC50 comes from taking -log10 of the concentration in mol/L.

O=P(O)(O)Cc1cc(O)nc2cc(I)ccc12 :: 4.46

Next, consider the following compound.
Challenge: State its pIC50: O=P(O)(O)CCc1cc(O)nc2cc(Cl)ccc12
Response given: 3.22

====

Molecular target: UniProt:P35439
Experiment: Binding affinity at glycine co-agonist site of rat NMDA receptor
Below, each of the molecules is paired with its reported IC50 value.
Just the number in µM, nothing appended.

O=P(O)(O)Cc1cc(O)nc2cc(Cl)ccc12 :: 10

Challenge: State its IC50: O=C(O)c1cc(CP(=O)(O)O)c2ccc(Cl)cc2n1
Response given: 69

====

Test: Tested for its ability to displace [3H]glutamate from NMDA receptor
pIC50: −log10 of the molar value.
Measure: pIC50

Known pIC50 results, listed for orientation:
O=P(O)(O)Cc1cc(O)nc2cc(Cl)ccc12 :: 4.52
O=C(O)c1cc(CCP(=O)(O)O)c2ccc(Cl)cc2n1 :: < 3.00
O=[N+]([O-])c1c(Cl)ccc2nc(O)cc(CP(=O)(O)O)c12 :: < 3.00
O=[N+]([O-])c1c(Cl)ccc2c(CP(=O)(O)O)cc(O)nc12 :: < 3.00
O=P(O)(O)c1cc(O)nc2cc(Cl)ccc12 :: < 3.52

Challenge: State its pIC50: O=P(O)(O)Cc1cc(O)nc2cc(Cl)cc(Cl)c12
Response given: < 4.00

====

Molecular target: Glutamate receptor ionotropic, NMDA 1 (Rattus norvegicus)
Test: Binding affinity at glycine co-agonist site of rat NMDA receptor
Below, each of the compounds is paired with its reported IC50 value.

Known IC50 results, listed for orientation:
O=[N+]([O-])c1c(Cl)ccc2nc(O)cc(CP(=O)(O)O)c12 :: > 1000 µM
O=[N+]([O-])c1c(Cl)ccc2c(CP(=O)(O)O)cc(O)nc12 :: > 1000 µM
O=P(O)(O)c1cc(O)nc2cc(Cl)ccc12 :: > 1000 µM
O=P(O)(O)Cc1cc(O)nc2cc(Cl)c(Cl)cc12 :: 79 µM
NC(Cc1cc(I)ccc1CCP(=O)(O)O)C(=O)O (centres undefined) :: 81 µM

Challenge: State its IC50: O=P(O)(O)Cc1cc(O)nc2cc(Cl)cc(Cl)c12
Response given: 29 µM

Challenge: State its IC50: O=P(O)(O)Cc1cc(O)nc2cc(I)ccc12
Response given: 37 µM

Challenge: State its IC50: O=C(O)c1cc(CCP(=O)(O)O)c2ccc(Cl)cc2n1
Response given: > 1000 µM

Challenge: State its IC50: N#Cc1cc2c(cc1[N+](=O)[O-])=NC(=O)C(=O)N=2
Response given: 7.9 µM
